molecular target: Short transient receptor potential channel 4 (Mus musculus); assay: calcium flux activators in TRPC4/5HT1a cells, counter-screen for TRPC4 activator project, cell-based, second counter screen, HEK293 TRPC4/5HT1a, Fluo-4 (AID 434977); settings: Fluo-4 calcium flux, at 10 µM
The source made the active and inactive calls.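 Rule for the calls: active = calcium signal rise above buffer-control mean plus 5 SD in both duplicates, and also a hit in the primary screen; inactive = the rest.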
Choose the fitting class; nothing outside 1 for active, -1 for inactive is accepted.

O=C1CC2(CCN(S(=O)(=O)c3ccccc3F)CC2)Oc2ccccc21 ... -1
CCN1CCN(c2ccc(S(=O)(=O)N3CCCCC3)cc2NC(=O)c2cccc(Cl)c2)CC1 ... 1
CNCC(=O)N1CCN(c2ncc(C(F)(F)F)cc2Cl)CC1 ... 1

Please find the next molecule below.
Inquiry: Short answer needed: outcome of this test for O=C(c1ccc2c(c1)OCO2)C1CCCN(Cc2ccccc2OC(F)F)C1 (stereo unspecified) ?
Reply text: -1

----------
target: Short transient receptor potential channel 4 (Mus musculus); experiment: block of DAMGO-driven TRPC4 calcium entry – cell-based, HEK293 TRPC4/mu-opioid, Fluo-4 calcium, dose response (AID 434942); details: HEK293 TRPC4/mu-opioid cells, DAMGO-evoked Fluo-4 calcium ratio; series mostly up to 20 µM
Measured potencies and affinities stand elsewhere. Calls of active or inactive are those of the source.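 How the source made its calls: active means primary screen inhibitor hit that blocks the TRPC4 channel at some tested dose, yielding a dose curve; inactive means the rest.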
quantity.name: outcome

Example cases with answers are listed next.
CSc1ncccc1C(=O)OCC(=O)N(CC(C)C)c1c(N)n(Cc2ccccc2)c(=O)[nH]c1=O ... inactive
CCCCOc1ccc(CSC(=N)N)cc1[N+](=O)[O-] ... inactive
Cn1c(N2CCN(C(=O)Nc3ccc(F)cc3)CC2)nc2ccccc21 ... inactive
Cc1ccc2c(c1)C1CN(C)CCC1N2C(=S)NC(=O)c1ccc(Br)cc1 (stereo not given) ... inactive
CC(C)CCNC(=O)CCC(=O)NNc1nc2ccccc2c2nc(-c3ccccc3)nn12 ... inactive

Go through the items and report each one's outcome.
1. CCSc1nnc([C@H](Cc2c[nH]c3ccccc23)NC(=O)OC(C)(C)C)o1
2. COc1ccc(OC)c(NC(=O)COC(=O)Cc2ccc(-c3ccccc3)cc2)c1

Reply text:
1. inactive
2. inactive

----------
biological target: Potassium voltage-gated channel subfamily KQT member 2 (Rattus norvegicus); assay: block of rat KCNQ2 potassium channel – cell-based, selectivity assay for KCNQ1 inhibitor project (AID 651746); conditions: KCNQ2 cells, FluxOR thallium flux fluorescence, at 10 µM;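 note: KCNQ2 expressed in CHO cells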
Some of the results follow. The source made the active and inactive calls.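 The calls were made as follows: active = mean percent inhibition of the KCNQ2 thallium signal more than 5 SD above the buffer-only control wells; inactive = the rest.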
Choose the fitting class; nothing outside active, inactive is accepted.

Worked examples follow.
CC(=O)N(C1=C(Cl)C(=O)c2ccccc2C1=O)c1ccc(C(=O)O)cc1 ... active
Cc1ccc2nc(C)c3c(c2c1)N(c1ccccc1)CC3 ... active
CCc1ccc(-c2nn(-c3ccccc3)cc2CSC(=N)N)cc1 ... active

Please find the next compound below.
Inquiry: Short answer needed: outcome of this test for S=C(NCc1ccc(Cl)cc1)NC12CC3CC(CC(C3)C1)C2 ?
Reply text: inactive

----------
test system: TRPC4 beta (transient receptor potential cation channel C4), mouse; assay: potentiation of DAMGO EC20 TRPC4 response – cell-based, Fluo-4, HEK293 TRPC4beta/mu-opioid, confirmation (AID 2555); settings: DAMGO EC20, Fluo-4 calcium flux, at 10 µM; hits give high values
Activity calls are given as the source filed them.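 Rule for the calls: active = primary screen hit whose calcium fluorescence ratio, in both repeats, exceeds the weak agonist control mean by 3 SD; inactive = the rest.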
quantity.name: potentiation

Example cases with answers are listed next.
CCOc1ccc(S(=O)(=O)N2CCN(C(=S)NC3CC3)CC2)cc1 ... 9% (active)
CCOC(=O)C1(Cc2cccc(F)c2)CCN(Cc2cnn(CC)c2)CC1 ... inactive
CCC1C=C(c2ccccc2)C=CN=C1N(CC)CC (centres undefined) ... inactive
CCn1nc(C)c(CN2CCCC(CO)(Cc3cccc(Cl)c3)C2)c1C (centres undefined) ... inactive
O=C(c1cc2cc(Br)cc(Br)c2oc1=O)N1CCCC1 ... inactive

Go through the items and report each one's potentiation.
1. Cc1ccc2[nH]c3c(N4CCc5ccccc5C4)ncnc3c2c1
2. CCn1cc(CN2CCCC(CO)(Cc3cccc(Cl)c3)C2)cn1 (centres undefined)
3. CC(C)(C)c1ccccc1OCCCCCn1ccnc1
4. CC(C)c1ccc(OCc2ccc(C(=O)N3CCCC3)o2)cc1

Reply text:
inactive
inactive
inactive
39% (active)

Go through the items and report each one's potentiation.
1. CCn1c(=N)n(CC(=O)c2ccc(Br)s2)c2ccccc21
2. O=C(O)c1ccc(CSc2nc(-c3ccc(Cl)cc3)cc(C(F)(F)F)n2)cc1
3. CCCc1c(-c2ccc(O)cc2)nn(-c2ccc(O)cc2)c1-c1ccc(O)cc1
4. CCc1cc(=O)oc2c(CNCc3ccccc3F)c(O)c(Cl)cc12

Reply text:
1. inactive
2. inactive
3. 20% (active)
4. inactive

Go through the items and report each one's potentiation.
1. COc1cccc(Oc2cncnc2-c2ccc(OC)cc2O)c1
2. Clc1ccc(OCCn2ccnc2)c(Br)c1
3. CC(C)Oc1ccccc1C1CC(=O)Nc2cc3c(cc21)OCCO3 (centres undefined)
4. Cc1ccc(Oc2ccccc2/C=N/O)cc1
5. Cc1cccc(Cn2c(=O)c3c(nc4n3CCCN4Cc3ccccc3)n(C)c2=O)c1

Reply text:
1. inactive
2. 13% (active)
3. 44% (active)
4. inactive
5. 120% (active)

Go through the items and report each one's potentiation.
1. CC(C)NCC(O)COCCOc1ccc(C(C)(C)C)cc1 (centres undefined)
2. Cn1c(N2CCN(C(=O)Nc3ccc(C(F)(F)F)cc3)CC2)nc2ccccc21
3. Cc1ccc(/C=C/C(=O)NC2CCCCCCC2)o1

Reply text:
["inactive", "inactive", "16% (active)"]

Go through the items and report each one's potentiation.
1. CNC(=O)COc1ccc2oc3c(c2c1)CCCC3
2. Cc1cc(C)c(C)c(S(=O)(=O)NCc2ccco2)c1C
3. CCCCN(CC)CCNc1c(N2CCN(C(=O)OCC)CC2)c(=O)c1=O

Reply text:
inactive
inactive
inactive

----------
system: TRPC4 (mouse), co-expressed with 5HT1a in HEK293; experiment: enhancement of serotonin-evoked TRPC4 response – cell-based, second counter screen, HEK293 TRPC4/5HT1a, Fluo-4, counter-screen for TRPC4 potentiator project, confirmation (AID 434979); settings: Fluo-4 calcium flux, at 10 µM, serotonin added at its EC20 dose
Calls of active or inactive are those of the source.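 Rule for the calls: active = signal rise over 3 SD above mean of control wells given weak agonist, in both repeats and first screen; inactive = the rest.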
Choose the fitting class; nothing outside yes (1) (active), no (0) (inactive) is accepted.

Worked examples follow.
Cc1cccc(Cn2c(C(C)(C)C)cc3cccnc32)c1 ... no (0)
O=C(NCCN1CCOCC1)c1ccc2c(c1)N(Cc1ccc(F)cc1)C(=O)CS2 ... no (0)
O=C(O)c1ccc(NC(=O)c2cn(-c3ccccc3)nc2-c2ccc(Br)cc2)cc1 ... no (0)
O=C(c1ccccc1F)N1CCN(c2ccc([N+](=O)[O-])c3cccnc23)CC1 ... yes (1)
COc1ccc(C(CNC(=O)c2cccc(Br)c2)N2CCCC2)cc1 (stereo not given) ... no (0)
CC[C@@H](C)[C@H](CNC)NC[C@@H](Cc1cccc2ccccc12)NCCc1cccc(C(F)(F)F)c1 ... no (0)
CC1CCc2c(C(=O)N3CCN(S(=O)(=O)c4cccs4)CC3)csc2C1 (stereo not given) ... no (0)
Cc1cc(Nc2ccc(C)c(C)c2)c2ccccc2n1 ... no (0)

Inquiry: Short answer needed: outcome of this test for O=C(N/N=C/c1cc2c(cc1Br)OCO2)c1cc2ccccc2o1 ?
Reply text: no (0)

Inquiry: Query CCOc1ccc(CCNC(=O)c2ccc3c(=O)[nH]c4c(C(=O)NC(C)C)sc(=S)n4c3c2)cc1 next
Reply text: yes (1)

----------
molecular target: Short transient receptor potential channel 4 (Mus musculus); assay: blockers of DAMGO-evoked TRPC4 calcium flux – cell-based, Fluo4, HEK293 TRPC4beta/mu-opioid, confirmation (AID 2636); settings: at 10 µM
Active and inactive are the calls of the source.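 How the source made its calls: active means calcium signal cut by more than 3 SD below the full-agonist control yet still positive, in both repeats and the earlier primary screen; inactive means the rest.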
Choose the fitting class; nothing outside active, inactive is accepted.

CCOC(=O)C1CCN(C2CCN(C(=O)c3oc4c(C)c(C)ccc4c3C)CC2)CC1 ... active
Cc1nn(C(=O)c2cccc([N+](=O)[O-])c2)c(C)c1Sc1ccccc1 ... active
COc1ccc(C2C(O)C(c3c[nH]c4ccccc34)=NN2C(=O)CCl)cc1 (stereo not given) ... inactive
O=C(O)C1C2C=CC(C2)C1C(=O)N1CCN(C/C=C/c2ccccc2)CC1 (stereo not given) ... inactive

Inquiry: Short answer needed: outcome of this test for CC(C)(C)[C@H]1C=C(C(=O)NCc2ccccc2)O[C@@H](OCc2ccc(CO)cc2)C1 ?
Reply text: inactive

----------
biological target: Short transient receptor potential channel 4 (Mus musculus) (UniProt Q9QUQ5); test: calcium flux activators in TRPC4/5HT1a cells, counter-screen for TRPC4 activator project, cell-based, second counter screen, HEK293 TRPC4/5HT1a, Fluo-4 (AID 434977); conditions: Fluo-4 calcium flux, at 10 µM
Sequence (Q9QUQ5 whole entry, looked up): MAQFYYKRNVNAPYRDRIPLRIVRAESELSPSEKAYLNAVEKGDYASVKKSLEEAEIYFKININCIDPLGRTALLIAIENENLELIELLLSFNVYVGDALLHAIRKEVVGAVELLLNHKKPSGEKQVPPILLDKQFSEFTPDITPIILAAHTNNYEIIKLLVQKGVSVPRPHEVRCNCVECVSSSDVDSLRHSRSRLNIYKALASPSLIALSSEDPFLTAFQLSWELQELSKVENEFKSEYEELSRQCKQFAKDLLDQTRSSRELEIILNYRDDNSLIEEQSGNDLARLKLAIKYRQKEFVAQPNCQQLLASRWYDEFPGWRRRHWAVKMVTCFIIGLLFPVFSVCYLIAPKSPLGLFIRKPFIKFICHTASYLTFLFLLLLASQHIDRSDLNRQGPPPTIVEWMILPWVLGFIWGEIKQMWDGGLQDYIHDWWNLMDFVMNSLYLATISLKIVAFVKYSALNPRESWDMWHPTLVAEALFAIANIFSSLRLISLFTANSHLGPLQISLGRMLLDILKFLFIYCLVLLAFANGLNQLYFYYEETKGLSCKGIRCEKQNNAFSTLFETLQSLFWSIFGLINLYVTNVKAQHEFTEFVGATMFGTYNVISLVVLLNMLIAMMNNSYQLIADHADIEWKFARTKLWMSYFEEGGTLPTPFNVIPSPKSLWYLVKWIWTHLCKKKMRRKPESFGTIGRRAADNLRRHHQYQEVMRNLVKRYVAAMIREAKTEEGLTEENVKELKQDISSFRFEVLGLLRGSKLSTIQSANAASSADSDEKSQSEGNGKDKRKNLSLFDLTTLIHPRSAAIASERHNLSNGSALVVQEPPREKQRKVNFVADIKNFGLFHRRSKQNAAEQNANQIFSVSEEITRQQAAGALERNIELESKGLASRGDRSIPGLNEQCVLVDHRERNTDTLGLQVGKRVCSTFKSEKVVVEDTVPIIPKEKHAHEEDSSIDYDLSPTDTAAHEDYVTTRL
Active and inactive are the calls of the source.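 Rule for the calls: active = calcium signal rise above buffer-control mean plus 5 SD in both duplicates, and also a hit in the primary screen; inactive = the rest.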
Choose the fitting class; nothing outside YES (active), NO (inactive) is accepted.

Inquiry: Short answer needed: outcome of this test for CCOc1ccccc1N(C(=O)c1snc(C(N)=O)c1N)C(C(=O)NCc1ccccc1)c1ccc(O)cc1 (stereo not given) ?
Reply text: NO

Inquiry: Query c1ccc(Nc2c3c(nc4ccccc24)CCC3)cc1 next
Reply text: NO

Inquiry: Query Cc1ccccc1Cn1c(=N)n(CC(O)c2ccco2)c2ccccc21 (stereo not given) next
Reply text: NO

All values here come from PubChem BioAssay.
